B1: tRNA (parent)
chain: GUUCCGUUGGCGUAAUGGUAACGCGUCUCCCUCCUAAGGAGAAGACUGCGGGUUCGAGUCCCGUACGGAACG

- Variants of: B1
- assay_text: yeast fitness relative to wild type (ratio to wild type); higher = fitter; tRNA-Arg(CCU), competitive growth, 37 C, YPD
Fewer inactive variants are shown than the library holds.
Rule: Met for yeast fitness not less than 0.7, Not met for anything less.

QUERY: Is reported yeast fitness greater than or equal to 0.7 here: GUUCUGUUGGCGUAAUGGUAACGCGUCUCCCUCCUAAGGUGCAGACUGCGGGUUCGAGUCCCGUUCGGAACG [C5U A40U A42C A65U]
RESULT: Not met

QUERY: Is the recorded value of yeast fitness equal to or greater than 0.7 for this variant? GUUCCGUUGGCGUAAUGGCACCGCGUCUCCCUCCUAAGGAGAAGACUGCGGGUUCGAGUCCCGUACGGAACG [U19C A21C]
RESULT: Met

QUERY: // inclusive: yeast fitness at least 0.7? input: GUUCCGUUAGCGUAAUGGUAACGCGUCUCCCUCCUAAGGAGAAGACUACGGGUUCGAGUCCCGUACGCAACG [G9A G48A G68C]
RESULT: Met

QUERY: Hi team, for GUUCCCUUGGCGUAAUGGUAACGUGUCUCCCUCCUAACGGGAAGACCGCGGGUUCGAGUCCCGUACGGAACG [G6C C24U G38C A40G U47C] , is the recorded yeast fitness at or above 0.7?
RESULT: Not met

QUERY: API: above_or_equal(metric=yeast fitness, cutoff=0.7) for item GUUCCGAUGGCGUAAUGGUAACGCGUCUCCCUUCUAAGGAGAAGACUGCGCGUUCGAGUCCCGUACGGAACG [U7A C33U G51C]
RESULT: Not met

QUERY: Identify whether the reported yeast fitness of the following variant is 0.7 or greater: GUUCCGUUGGCGUAAUGAUAACGCGUCUCCCUCCUAAGGAGAAGACUGCGGGUUCGAGUACCGUACAGAACG [G18A C60A G67A]
RESULT: Not met

QUERY: Given the entry GUUCCGUUGGCGUAAUGGUCACGCGUCUGCCUCCUAAGGAGAAGACUGCGGGUUCGAGUCCCGUUCGGAACG [A20C C29G A65U] , answer whether its yeast fitness meets or surpasses 0.7.
RESULT: Not met

QUERY: Could you verify whether the entry GUUCUGUUGGCGUAAAGGUAACGCGUCUCCCUCCUAAGGAGAAGACUGCGGGUUCGAGUCCCAUACGGAACG [C5U U16A G63A] shows yeast fitness of no less than 0.7?
RESULT: Not met

QUERY: Can GUUGUGUUGGCGUAAUGGUAACGCGUGUCCCUCAUAAGGAGAAGACUGCGGGUUCGAGUCCCGUACGGAACG [C4G C5U C27G C34A] be said to have yeast fitness at or above 0.7?
RESULT: Not met

QUERY: Is it the case that GUUCCGUUGGCGUAAUGGUAACGCGUCUCCCUCCUAAGGAGAAGAGUCCGGGUUCGAGUCCCGUUCGAAACG [C46G G48C A65U G68A] has yeast fitness reaching or exceeding 0.7?
RESULT: Not met

QUERY: In plain terms: is recorded yeast fitness at least 0.7 for GUUCCGUUGGUGUAAUGGUAACGCGUCUCCCUCCUAAGGAGAAGACUGCGGAUUCGAGUCCCGUACGGAACG [C11U G52A] ?
RESULT: Met

QUERY: Textbook exercise: given the entry GUUGCGAUGGAGUAAUGGUACCGCGUCUUCCUCCUAAGGAGAAGACUGUGGGUUCGAGUCCCGUACGGAACG [C4G U7A C11A A21C C29U C49U] , state whether its yeast fitness is greater than or equal to 0.7.
RESULT: Not met

QUERY: Tell me whether yeast fitness is at least 0.7 here: GUUCCGUUGGCGUAUUGGUAACGCGUCUCCCUCCUAAGGAGAAGACUGCGGGAUCGAGUCCAGUACGGAACG [A15U U53A C62A]
RESULT: Not met

QUERY: Determine whether this variant has yeast fitness no lower than 0.7: GUUCCGUUGCCGUAAUGGUAACGCGUCUCCCUCUUAAGUCGAAGACUGCGGGUUCGAGUCCCGUACGGAACG [G10C C34U G39U A40C]
RESULT: Not met

QUERY: Please check the record GUUCCGCUGGCGUAAUGGUAACGCGUCUCCCUGCUAAGGAGAAGACUGCGGGUUCGAGUCCCGUACGGAGCG [U7C C33G A70G] and state if its yeast fitness is at or above 0.7.
RESULT: Not met

QUERY: Please tell me: is the variant GUUCCGUUGGCGUAGUGGUAACGCGUCUCCAUCCUAAGGAGAAGACUGCGGGUUCGAGUCCCGUGCGGAACG [A15G C31A A65G] at or over 0.7 in terms of yeast fitness?
RESULT: Not met

QUERY: Determine whether this variant has yeast fitness no lower than 0.7: GUUCCGUUGGAGUAAUGGUAACUCGUCUCCCUCCUUAGGAGAAGACUGCGGGUUCGAGUCCCGUACGGAACG [C11A G23U A36U]
RESULT: Not met

QUERY: Determine whether this variant has yeast fitness no lower than 0.7: GUUCCGAUGACGUAAUGGUCACGCGUCUACCUCCUAAGGAGAAGACUGCGGGUUCGAGUCCCGUACGGAACG [U7A G10A A20C C29A]
RESULT: Not met

QUERY: Can GUUCCGUUGGCAUAAUGGAAACGCGUCUCCGUCUUAAGGAGAAGACUGCGGGUUCGGGUCCCGUACGGAACG [G12A U19A C31G C34U A57G] be said to have yeast fitness at or above 0.7?
RESULT: Not met

QUERY: Is reported yeast fitness greater than or equal to 0.7 here: GUUCCGUUGGCGUAUUGGUAACGCGUCUCCCUCCUUAGGAAAAGACUGCGGGUUCGAGUCCCGUACGGAACG [A15U A36U G41A]
RESULT: Not met
